Data provenance is ChEMBL document CHEMBL1129350.

System: Mus musculus
Test: Maximum tolerated ip dose for male C3H/HeN mice.
Format: functional
Label 1 (yes) for high-side MTD (at or above 20 µM/kg) and 0 (no) for low-side MTD (below it).

Here's what some known entries look like.
COc1cccc2c(NCCCN(C)C)c3c([N+](=O)[O-])ccc(OC)c3nc12 1 (yes)
Cc1ccc([N+](=O)[O-])c2c(NCCCN(C)C)c3ccccc3nc12 0 (no)

input: Answer whether MTD of COc1cccc2c(NCCC[N+](C)(C)[O-])c3c([N+](=O)[O-])ccc(OC)c3nc12 is greater than or equal to 20 µM/kg.
output: 1 (yes)

input: Moving on to the next molecule: COc1ccc([N+](=O)[O-])c2c(NCCC[N+](C)(C)[O-])c3ccccc3nc12
output: 1 (yes)

input: Moving on to the next molecule: COc1ccc2nc3ccccc3c(NCCC[N+](C)(C)[O-])c2c1[N+](=O)[O-]
output: 1 (yes)

input: Moving on to the next molecule: Cc1cccc2c(NCCC[N+](C)(C)[O-])c3c([N+](=O)[O-])ccc(C)c3nc12
output: 0 (no)

input: Moving on to the next molecule: Cc1ccc([N+](=O)[O-])c2c(NCCC[N+](C)(C)[O-])c3ccccc3nc12
output: 0 (no)

input: Moving on to the next molecule: COc1cc(OC)c2nc3ccccc3c(NCCC[N+](C)(C)[O-])c2c1[N+](=O)[O-]
output: 1 (yes)

====

Assay: Inhibitory activity against aerobic growth of UV4cells, Hypersensitivity factor is the ratio of IC50(AA8) to IC50(UV4).
Type: functional
Label Criterion met for high-side Ratio (at or above 10) and Criterion not met for low-side Ratio (below it).

Here's what some known entries look like.
Cc1cccc2c(NCCCN(C)C)c3c([N+](=O)[O-])ccc(C)c3nc12 Criterion met
COc1cc(OC)c2nc3ccccc3c(NCCC[N+](C)(C)[O-])c2c1[N+](=O)[O-] Criterion not met
Cc1ccc([N+](=O)[O-])c2c(NCCC[N+](C)(C)[O-])c3ccccc3nc12 Criterion met
COc1ccc([N+](=O)[O-])c2c(NCCCN(C)C)c3ccccc3nc12 Criterion met
COc1cccc2c(NCCC[N+](C)(C)[O-])c3c([N+](=O)[O-])ccc(OC)c3nc12 Criterion met
C[N+](C)([O-])CCCNc1c2ccccc2nc2cccc([N+](=O)[O-])c12 Criterion met
COc1cc(OC)c2nc3ccccc3c(NCCCN(C)C)c2c1[N+](=O)[O-] Criterion not met
COc1cccc2c(NCCCN(C)C)c3c([N+](=O)[O-])ccc(OC)c3nc12 Criterion met
CN(C)CCCNc1c2ccccc2nc2cccc([N+](=O)[O-])c12 Criterion met
Cc1ccc([N+](=O)[O-])c2c(NCCCN(C)C)c3ccccc3nc12 Criterion met

input: Answer whether Ratio of Cc1cccc2c(NCCC[N+](C)(C)[O-])c3c([N+](=O)[O-])ccc(C)c3nc12 is greater than or equal to 10.
output: Criterion met

input: Moving on to the next molecule: COc1ccc([N+](=O)[O-])c2c(NCCC[N+](C)(C)[O-])c3ccccc3nc12
output: Criterion met

input: Moving on to the next molecule: COc1ccc2nc3ccccc3c(NCCCN(C)C)c2c1[N+](=O)[O-]
output: Criterion not met

====

Experiment: Air/N2 ratio = C10(air)/C10(nitrogen)
measurement_name: Ratio

Known results for molecules:
Cc1ccc([N+](=O)[O-])c2c(NCCC[N+](C)(C)[O-])c3ccccc3nc12 150
COc1cccc2c(NCCC[N+](C)(C)[O-])c3c([N+](=O)[O-])ccc(OC)c3nc12 2770
COc1cc(OC)c2nc3ccccc3c(NCCC[N+](C)(C)[O-])c2c1[N+](=O)[O-] 1.2
COc1cc(OC)c2nc3ccccc3c(NCCCN(C)C)c2c1[N+](=O)[O-] 2.3
C[N+](C)([O-])CCCNc1c2ccccc2nc2cccc([N+](=O)[O-])c12 820
Cc1cccc2c(NCCCN(C)C)c3c([N+](=O)[O-])ccc(C)c3nc12 11

input: Could you tell me which Ratio is on file for COc1ccc([N+](=O)[O-])c2c(NCCC[N+](C)(C)[O-])c3ccccc3nc12 ?
output: 1250

====

Tested on: EMT6 (Mus musculus)
Test: Concentration resulting in 10% survival in dissociated EMT6 spheroid cell suspension
measurement_name: C10 (µM)
Express the result in µM but write the number alone.

input: Could you tell me which C10 is on file for COc1ccc([N+](=O)[O-])c2c(NCCC[N+](C)(C)[O-])c3ccccc3nc12 ?
output: 300

input: Moving on to the next molecule: COc1ccc([N+](=O)[O-])c2c(NCCCN(C)C)c3ccccc3nc12
output: 1.7

input: Moving on to the next molecule: CN(C)CCCNc1c2ccccc2nc2cccc([N+](=O)[O-])c12
output: 0.11

input: Moving on to the next molecule: C[N+](C)([O-])CCCNc1c2ccccc2nc2cccc([N+](=O)[O-])c12
output: 1.9

====

The following molecules are listed with their measured Ratio values.
Assay: Air/N2 ratio = C10(air)/C10(nitrogen)
// return a plain number; no unit text

Cc1cccc2c(NCCC[N+](C)(C)[O-])c3c([N+](=O)[O-])ccc(C)c3nc12 54
Cc1ccc([N+](=O)[O-])c2c(NCCCN(C)C)c3ccccc3nc12 6.9
COc1ccc([N+](=O)[O-])c2c(NCCCN(C)C)c3ccccc3nc12 11
CN(C)CCCNc1c2ccccc2nc2cccc([N+](=O)[O-])c12 5.1

Now consider the entry below.
input: Could you tell me which Ratio is on file for COc1cccc2c(NCCCN(C)C)c3c([N+](=O)[O-])ccc(OC)c3nc12 ?
output: 14

====

System: Mus musculus
Test: Maximum tolerated ip dose for male C3H/HeN mice.
Format: functional
measurement_name: MTD (µM/kg)
Express the result in µM/kg but write the number alone.

Known results for molecules:
Cc1cccc2c(NCCCN(C)C)c3c([N+](=O)[O-])ccc(C)c3nc12 20
CN(C)CCCNc1c2ccccc2nc2cccc([N+](=O)[O-])c12 0.3
COc1ccc([N+](=O)[O-])c2c(NCCCN(C)C)c3ccccc3nc12 15
C[N+](C)([O-])CCCNc1c2ccccc2nc2cccc([N+](=O)[O-])c12 15

Now consider the entry below.
input: Could you tell me which MTD is on file for COc1cc(OC)c2nc3ccccc3c(NCCCN(C)C)c2c1[N+](=O)[O-] ?
output: 300
